# targetSystem: T1, low-density lipoprotein receptor-related protein (LRP), purified (human, UniProt Q07954 20-4544)
# T1 construct: mature; also called low density lipoprotein receptor-related protein/α2-macroglobulin receptor; LRP receptor
# T1 sequence (Q07954 20-4544, form in doubt): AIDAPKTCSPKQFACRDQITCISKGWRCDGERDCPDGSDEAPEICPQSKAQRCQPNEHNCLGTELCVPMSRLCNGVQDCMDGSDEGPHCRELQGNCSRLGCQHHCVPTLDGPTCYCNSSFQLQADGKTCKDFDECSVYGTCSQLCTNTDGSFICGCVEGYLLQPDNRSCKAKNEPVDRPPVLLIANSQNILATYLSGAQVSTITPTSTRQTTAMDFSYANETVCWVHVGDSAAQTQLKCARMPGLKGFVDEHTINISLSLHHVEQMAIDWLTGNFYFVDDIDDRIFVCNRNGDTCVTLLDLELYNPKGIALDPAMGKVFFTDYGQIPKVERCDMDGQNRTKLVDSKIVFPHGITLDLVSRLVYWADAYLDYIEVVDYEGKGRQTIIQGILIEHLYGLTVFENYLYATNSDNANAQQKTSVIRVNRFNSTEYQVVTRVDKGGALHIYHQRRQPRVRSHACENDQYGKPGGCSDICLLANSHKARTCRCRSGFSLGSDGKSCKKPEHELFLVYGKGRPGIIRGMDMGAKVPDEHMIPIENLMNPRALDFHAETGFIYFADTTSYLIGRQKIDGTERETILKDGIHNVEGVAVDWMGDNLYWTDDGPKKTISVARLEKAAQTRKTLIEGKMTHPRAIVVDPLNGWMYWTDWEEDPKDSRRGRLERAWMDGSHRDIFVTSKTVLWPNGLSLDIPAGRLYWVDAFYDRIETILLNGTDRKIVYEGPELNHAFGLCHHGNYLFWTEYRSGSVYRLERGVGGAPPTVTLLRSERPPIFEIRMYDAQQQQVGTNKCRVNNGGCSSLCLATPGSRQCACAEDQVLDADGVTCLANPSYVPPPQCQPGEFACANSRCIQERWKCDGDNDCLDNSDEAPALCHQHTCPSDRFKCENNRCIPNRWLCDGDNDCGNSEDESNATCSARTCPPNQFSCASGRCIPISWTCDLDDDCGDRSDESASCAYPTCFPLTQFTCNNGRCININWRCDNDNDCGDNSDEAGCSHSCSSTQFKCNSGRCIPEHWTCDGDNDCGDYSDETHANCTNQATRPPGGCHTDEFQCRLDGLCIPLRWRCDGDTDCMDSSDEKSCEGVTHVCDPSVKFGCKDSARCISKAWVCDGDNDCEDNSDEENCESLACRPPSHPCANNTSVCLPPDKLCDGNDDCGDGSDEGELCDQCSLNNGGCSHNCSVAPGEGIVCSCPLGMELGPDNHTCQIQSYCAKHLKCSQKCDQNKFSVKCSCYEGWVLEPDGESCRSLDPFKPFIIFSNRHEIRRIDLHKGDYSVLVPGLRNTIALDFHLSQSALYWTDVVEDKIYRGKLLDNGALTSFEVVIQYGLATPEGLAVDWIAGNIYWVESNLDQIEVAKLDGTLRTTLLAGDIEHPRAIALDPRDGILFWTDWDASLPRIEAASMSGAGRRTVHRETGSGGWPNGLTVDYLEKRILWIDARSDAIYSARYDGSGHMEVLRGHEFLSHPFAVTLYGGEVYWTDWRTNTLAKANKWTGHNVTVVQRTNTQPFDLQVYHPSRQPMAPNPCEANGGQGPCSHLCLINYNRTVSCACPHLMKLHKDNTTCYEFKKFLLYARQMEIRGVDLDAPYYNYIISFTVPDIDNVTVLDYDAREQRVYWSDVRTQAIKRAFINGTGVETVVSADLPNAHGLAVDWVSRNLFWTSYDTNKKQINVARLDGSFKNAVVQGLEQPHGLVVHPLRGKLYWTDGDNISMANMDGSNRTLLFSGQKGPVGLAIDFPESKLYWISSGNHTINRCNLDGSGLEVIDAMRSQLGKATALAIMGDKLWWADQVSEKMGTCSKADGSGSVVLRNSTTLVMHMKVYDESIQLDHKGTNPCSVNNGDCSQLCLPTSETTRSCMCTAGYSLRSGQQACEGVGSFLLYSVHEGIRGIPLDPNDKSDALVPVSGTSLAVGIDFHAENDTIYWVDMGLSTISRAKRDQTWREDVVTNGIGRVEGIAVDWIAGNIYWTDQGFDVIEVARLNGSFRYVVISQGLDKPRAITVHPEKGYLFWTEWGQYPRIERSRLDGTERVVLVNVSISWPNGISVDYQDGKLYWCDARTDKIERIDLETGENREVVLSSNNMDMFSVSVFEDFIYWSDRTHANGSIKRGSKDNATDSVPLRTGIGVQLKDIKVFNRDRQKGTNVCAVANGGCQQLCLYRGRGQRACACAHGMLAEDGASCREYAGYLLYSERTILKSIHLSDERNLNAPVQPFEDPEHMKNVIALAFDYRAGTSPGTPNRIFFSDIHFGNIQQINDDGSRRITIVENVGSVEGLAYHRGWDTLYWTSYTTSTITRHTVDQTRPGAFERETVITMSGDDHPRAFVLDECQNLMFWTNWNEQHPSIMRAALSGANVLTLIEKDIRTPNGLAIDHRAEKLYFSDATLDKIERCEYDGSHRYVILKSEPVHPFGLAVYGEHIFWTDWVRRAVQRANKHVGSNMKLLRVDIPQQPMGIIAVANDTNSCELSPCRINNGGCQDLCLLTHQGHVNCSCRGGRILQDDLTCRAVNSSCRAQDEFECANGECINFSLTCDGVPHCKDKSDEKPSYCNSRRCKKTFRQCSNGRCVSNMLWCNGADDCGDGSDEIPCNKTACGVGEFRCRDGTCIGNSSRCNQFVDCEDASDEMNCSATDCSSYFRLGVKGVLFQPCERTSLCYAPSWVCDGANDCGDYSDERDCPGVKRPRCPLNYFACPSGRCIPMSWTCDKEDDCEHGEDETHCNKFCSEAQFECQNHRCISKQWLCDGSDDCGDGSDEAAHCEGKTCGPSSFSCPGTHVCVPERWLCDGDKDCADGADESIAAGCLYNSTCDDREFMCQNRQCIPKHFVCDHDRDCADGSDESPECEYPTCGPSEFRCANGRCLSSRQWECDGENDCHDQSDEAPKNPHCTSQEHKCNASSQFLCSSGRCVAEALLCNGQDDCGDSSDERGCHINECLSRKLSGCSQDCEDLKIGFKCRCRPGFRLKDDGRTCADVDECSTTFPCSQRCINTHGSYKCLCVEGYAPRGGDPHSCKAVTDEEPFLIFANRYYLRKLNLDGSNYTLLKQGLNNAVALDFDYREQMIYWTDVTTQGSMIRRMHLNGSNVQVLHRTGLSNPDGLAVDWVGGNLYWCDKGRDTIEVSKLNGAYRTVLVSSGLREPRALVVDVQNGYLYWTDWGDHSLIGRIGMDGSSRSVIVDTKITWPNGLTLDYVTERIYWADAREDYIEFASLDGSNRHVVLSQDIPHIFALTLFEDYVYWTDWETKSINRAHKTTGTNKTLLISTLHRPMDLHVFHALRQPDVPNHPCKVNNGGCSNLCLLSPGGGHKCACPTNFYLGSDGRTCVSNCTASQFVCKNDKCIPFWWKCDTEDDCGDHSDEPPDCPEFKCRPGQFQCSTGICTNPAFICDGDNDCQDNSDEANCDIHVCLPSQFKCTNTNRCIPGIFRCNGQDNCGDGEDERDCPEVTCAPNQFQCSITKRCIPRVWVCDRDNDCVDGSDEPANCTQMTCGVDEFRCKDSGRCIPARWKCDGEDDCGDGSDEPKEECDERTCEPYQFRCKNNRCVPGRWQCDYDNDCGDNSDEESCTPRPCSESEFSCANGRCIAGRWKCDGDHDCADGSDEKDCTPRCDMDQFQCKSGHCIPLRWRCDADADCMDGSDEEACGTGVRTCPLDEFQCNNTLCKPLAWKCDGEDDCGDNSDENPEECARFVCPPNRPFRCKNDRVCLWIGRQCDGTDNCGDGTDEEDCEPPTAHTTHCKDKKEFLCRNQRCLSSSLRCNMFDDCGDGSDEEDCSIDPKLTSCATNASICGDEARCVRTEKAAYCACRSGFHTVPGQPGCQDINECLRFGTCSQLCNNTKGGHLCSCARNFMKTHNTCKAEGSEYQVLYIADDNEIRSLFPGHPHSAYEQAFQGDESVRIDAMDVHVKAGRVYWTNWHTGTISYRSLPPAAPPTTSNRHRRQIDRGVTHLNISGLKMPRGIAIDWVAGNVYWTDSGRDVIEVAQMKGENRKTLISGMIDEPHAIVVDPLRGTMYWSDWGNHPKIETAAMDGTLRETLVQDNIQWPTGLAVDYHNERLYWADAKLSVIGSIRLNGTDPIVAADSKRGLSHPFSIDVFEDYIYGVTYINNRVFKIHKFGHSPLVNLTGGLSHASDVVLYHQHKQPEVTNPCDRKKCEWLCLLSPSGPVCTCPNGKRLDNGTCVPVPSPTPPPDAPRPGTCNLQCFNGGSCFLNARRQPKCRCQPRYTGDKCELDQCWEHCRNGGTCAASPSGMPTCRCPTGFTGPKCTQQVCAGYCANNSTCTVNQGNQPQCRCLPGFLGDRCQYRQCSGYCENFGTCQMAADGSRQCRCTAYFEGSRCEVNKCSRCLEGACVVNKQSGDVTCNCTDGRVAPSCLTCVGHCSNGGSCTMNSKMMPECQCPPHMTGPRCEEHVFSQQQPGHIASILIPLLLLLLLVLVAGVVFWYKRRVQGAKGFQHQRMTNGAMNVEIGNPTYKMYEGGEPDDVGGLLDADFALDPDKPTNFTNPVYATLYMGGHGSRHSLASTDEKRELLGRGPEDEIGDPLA
# testProtocol: SPR, BIAcore 3000, one-site model, KD = koff/kon
# Text: Surface plasmon resonance-based binding assay. […] This system allows real-time biomolecular interaction analysis (BIA) using surface plasmon resonance (SPR) technology. One molecule (the ligand) is usually immobilized on the surface of the sensor chip; the second molecule (the analyte) in solution is passed over the chip under conditions of continuous flow, and the amount of the bound analyte is detected by the system. […]
recordedMetric: Kd (nM)
Output spec: scalar in nM, unitless text.

Check out these entries, answers already filled in.
{"binder": "recombinant A2 mutant #19 (Lys-523 to Ala) (other, hx-A2 form from Sf9 cells; not shown: N-terminal hx leader (6xHis tag, vector-derived linker, factor Xa site)) SGAKKHPKTWVHYIAAEEEDWDYAPLVLAPDDRSYKSQYLNNGPQRIGRKYKKVRFMAYTDETFKTREAIQHESGILGPLLYGEVGDTLLIIFKNQASRPYNIYPHGITDVRPLYSRRLPKGVKHLKDFPILPGEIFKYKWTVTVEDGPTASDPRCLTRYYSSFVNMERDLASGLIGPLLICYKESVDQRGNQIMSDKRNVILFSVFDENRSWYLTENIQRFLPNPAGVQLEDPEFQASNIMHSINGYVFDSLQLSVCLHEVAYWYILSIGAQTDFLSVFFSGYTFKHKMVYEDTLTLFPFSGETVFMSMENPGLWILGCHNSDFRNRGMTALLKVSSCDKNTGDYYEDSYEDISAYLLSKNNAIEPR", "unitsText": "nM", "Kd": 41}
{"binder": "recombinant wild-type A2 domain of human factor VIII (hx-A2) (other, Secreted from Sf9 cells as hx-A2 and purified on mAb 8860; Removal of the tag is not reported; also called wt-A2; recombinant A2; not shown: N-terminal hx leader (6xHis tag, vector-derived linker, factor Xa site)) SGAKKHPKTWVHYIAAEEEDWDYAPLVLAPDDRSYKSQYLNNGPQRIGRKYKKVRFMAYTDETFKTREAIQHESGILGPLLYGEVGDTLLIIFKNQASRPYNIYPHGITDVRPLYSRRLPKGVKHLKDFPILPGEIFKYKWTVTVEDGPTKSDPRCLTRYYSSFVNMERDLASGLIGPLLICYKESVDQRGNQIMSDKRNVILFSVFDENRSWYLTENIQRFLPNPAGVQLEDPEFQASNIMHSINGYVFDSLQLSVCLHEVAYWYILSIGAQTDFLSVFFSGYTFKHKMVYEDTLTLFPFSGETVFMSMENPGLWILGCHNSDFRNRGMTALLKVSSCDKNTGDYYEDSYEDISAYLLSKNNAIEPR", "unitsText": "nM", "Kd": 21}

Consider recombinant A2 mutant #16 (His-499 to Ala as printed in Tables 1 and 2; Lys^499 in the text) (other, hx-A2 form from Sf9 cells; also called Lys^499 Ala mutant; not shown: N-terminal hx leader (6xHis tag, vector-derived linker, factor Xa site)) SGAKKHPKTWVHYIAAEEEDWDYAPLVLAPDDRSYKSQYLNNGPQRIGRKYKKVRFMAYTDETFKTREAIQHESGILGPLLYGEVGDTLLIIFKNQASRPYNIYPHGITDVRPLYSRRLPKGVKHLADFPILPGEIFKYKWTVTVEDGPTKSDPRCLTRYYSSFVNMERDLASGLIGPLLICYKESVDQRGNQIMSDKRNVILFSVFDENRSWYLTENIQRFLPNPAGVQLEDPEFQASNIMHSINGYVFDSLQLSVCLHEVAYWYILSIGAQTDFLSVFFSGYTFKHKMVYEDTLTLFPFSGETVFMSMENPGLWILGCHNSDFRNRGMTALLKVSSCDKNTGDYYEDSYEDISAYLLSKNNAIEPR . Its measured Kd is 33

Consider recombinant A2 mutant #14 (Lys-496 to Ala) (other, hx-A2 form from Sf9 cells) SGAKKHPKTWVHYIAAEEEDWDYAPLVLAPDDRSYKSQYLNNGPQRIGRKYKKVRFMAYTDETFKTREAIQHESGILGPLLYGEVGDTLLIIFKNQASRPYNIYPHGITDVRPLYSRRLPKGVAHLKDFPILPGEIFKYKWTVTVEDGPTKSDPRCLTRYYSSFVNMERDLASGLIGPLLICYKESVDQRGNQIMSDKRNVILFSVFDENRSWYLTENIQRFLPNPAGVQLEDPEFQASNIMHSINGYVFDSLQLSVCLHEVAYWYILSIGAQTDFLSVFFSGYTFKHKMVYEDTLTLFPFSGETVFMSMENPGLWILGCHNSDFRNRGMTALLKVSSCDKNTGDYYEDSYEDISAYLLSKNNAIEPR . Its measured Kd is 9.5
